Tested on: Staphylococcus aureus 489
Assay: MIC, standard broth micro-dilution assay, SA 489
Assay type: cell-based
Set-up: unit not given here
readout: Minimal Inhibitory Concentration (MIC) SA 489
Response field accepts a number only; no unit should be typed.

Some solved cases for reference:
{"columns": ["compound", "endpointValue"],
 "data": [
  ["C[C@@H]1O[C@@H](O[C@H]2[C@H](Oc3c4cc5cc3Oc3ccc(cc3Cl)[C@@H](O[C@H]3C[C@](C)(N)[C@@H](O)[C@H](C)O3)[C@@H]3NC(=O)[C@H](NC(=O)[C@@H]5NC(=O)[C@H](CC(N)=O)NC(=O)[C@H](NCc5ccc(OCCCc6ccccc6)cc5)[C@H](O)c5ccc(c(Cl)c5)O4)c4ccc(O)c(c4)-c4c(O)cc(O)cc4[C@@H](C(=O)O)NC3=O)O[C@H](CO)[C@@H](O)[C@@H]2O)C[C@](C)(N)[C@H]1O", 4],
  ["C[C@@H]1O[C@@H](O[C@H]2[C@H](Oc3c4cc5cc3Oc3ccc(cc3Cl)[C@@H](O[C@H]3C[C@](C)(N)[C@@H](O)[C@H](C)O3)[C@@H]3NC(=O)[C@H](NC(=O)[C@@H]5NC(=O)[C@H](CC(N)=O)NC(=O)[C@H](NCCCCCCCCc5ccccc5)[C@H](O)c5ccc(c(Cl)c5)O4)c4ccc(O)c(c4)-c4c(O)cc(O)cc4[C@@H](C(=O)O)NC3=O)O[C@H](CO)[C@@H](O)[C@@H]2O)C[C@](C)(N)[C@H]1O [Example 19, N^1 -(8-PHENYL-n-OCTYL)DESLEUCYL-A82846B]", 1],
  ["C[C@@H]1O[C@@H](O[C@@H]2c3ccc(c(Cl)c3)Oc3cc4cc(c3O[C@@H]3O[C@H](CO)[C@@H](O)[C@H](O)[C@H]3O[C@H]3C[C@](C)(NCCCCCCCCCCc5ccccc5)[C@@H](O)[C@H](C)O3)Oc3ccc(cc3Cl)[C@@H](O)[C@@H](NCCCCCCCCCCc3ccccc3)C(=O)N[C@@H](CC(N)=O)C(=O)N[C@H]4C(=O)N[C@H]3C(=O)N[C@@H]2C(=O)N[C@H](C(=O)O)c2cc(O)cc(O)c2-c2cc3ccc2O)C[C@](C)(N)[C@H]1O", 64]
]}

Give the measured Minimal Inhibitory Concentration (MIC) SA 489 for CC1OC(OC2c3ccc(c(Cl)c3)Oc3cc4cc(c3OC3OC(CO)C(O)C(O)C3OC3CC(C)(N)C(O)C(C)O3)Oc3ccc(cc3Cl)C(O)C(NCCCCCCCCCCCCc3ccccc3)C(=O)NC(CC(N)=O)C(=O)NC4C(=O)NC3C(=O)NC2C(=O)NC(C(=O)O)c2cc(O)cc(O)c2-c2cc3ccc2O)CC(C)(N)C1O (centres unmarked)
2

Find the measured Minimal Inhibitory Concentration (MIC) SA 489 of CCCCCCCCOc1ccc(CN[C@H]2C(=O)N[C@@H](CC(N)=O)C(=O)N[C@H]3C(=O)N[C@H]4C(=O)N[C@H](C(=O)N[C@H](C(=O)O)c5cc(O)cc(O)c5-c5cc4ccc5O)[C@H](O[C@H]4C[C@](C)(N)[C@@H](O)[C@H](C)O4)c4ccc(c(Cl)c4)Oc4cc3cc(c4O[C@@H]3O[C@H](CO)[C@@H](O)[C@H](O)[C@H]3O[C@H]3C[C@](C)(N)[C@@H](O)[C@H](C)O3)Oc3ccc(cc3Cl)[C@H]2O)cc1 and report it.
4
